# Assayed Target: P2X7 (Homo sapiens, UniProt Q99572)
# Sequence (Q99572 whole entry): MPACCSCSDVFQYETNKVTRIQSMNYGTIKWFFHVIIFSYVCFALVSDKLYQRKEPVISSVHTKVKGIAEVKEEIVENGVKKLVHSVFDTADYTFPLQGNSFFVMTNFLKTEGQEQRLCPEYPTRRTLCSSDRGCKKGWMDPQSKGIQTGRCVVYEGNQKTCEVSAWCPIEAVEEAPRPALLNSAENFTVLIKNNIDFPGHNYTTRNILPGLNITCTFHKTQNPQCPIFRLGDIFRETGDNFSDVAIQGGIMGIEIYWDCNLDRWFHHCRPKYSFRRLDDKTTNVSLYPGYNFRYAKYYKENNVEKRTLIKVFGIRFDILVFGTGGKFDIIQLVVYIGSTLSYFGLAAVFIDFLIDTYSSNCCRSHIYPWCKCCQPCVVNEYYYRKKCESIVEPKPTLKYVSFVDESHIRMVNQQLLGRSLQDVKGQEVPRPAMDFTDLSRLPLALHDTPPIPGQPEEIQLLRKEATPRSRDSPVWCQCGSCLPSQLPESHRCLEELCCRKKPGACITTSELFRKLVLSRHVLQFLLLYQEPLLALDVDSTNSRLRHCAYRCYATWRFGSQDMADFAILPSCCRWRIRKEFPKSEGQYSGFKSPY
# Experimental Protocol: P2X7 antagonism in human whole blood (IL-1β release, ELISA)
# Type: cell-based
# Parameters: PBMCs were isolated from blood using a Ficoll density gradient technique; endogenous in cells; host or cells: human PBMCs / human whole blood from donors
# Condition Summary: LPS 30 ng/ml + 1 mM Bz-ATP
# Protocol: P2X7 Antagonism in Human Peripheral Blood Mononuclear Cells (PBMCs) and Human Whole Blood. Human blood was collected using a blood donor program. PBMCs were isolated from blood using a Ficoll density gradient technique. […] Data was expressed as percent control, where control is defined as the difference in IL-1β release in LPS+Bz-ATP samples and LPS only samples. […] Data are analyzed and graphed on Graphpad Prism 5. […]
Listed here: items and their measured IC50.
Parameter: IC50 (µM)

• Cc1nnc2n1CCN(C(=O)c1cccc(C(F)(F)F)c1Cl)C2c1ccccc1 (racemic) = 0.079
• C[C@H]1Cn2c(nnc2-c2cc(F)c(F)c(F)c2)CN1C(=O)c1cccc(C(F)(F)F)c1Cl = 1.59
• C[C@H]1Cn2c(nnc2-c2ccco2)CN1C(=O)c1cccc(C(F)(F)F)c1Cl = 0.025
